Each entry below carries its recorded log10 of IC50.
- target-system: orexin-1 (Homo sapiens (Human))
- Sequence (O43613 whole entry): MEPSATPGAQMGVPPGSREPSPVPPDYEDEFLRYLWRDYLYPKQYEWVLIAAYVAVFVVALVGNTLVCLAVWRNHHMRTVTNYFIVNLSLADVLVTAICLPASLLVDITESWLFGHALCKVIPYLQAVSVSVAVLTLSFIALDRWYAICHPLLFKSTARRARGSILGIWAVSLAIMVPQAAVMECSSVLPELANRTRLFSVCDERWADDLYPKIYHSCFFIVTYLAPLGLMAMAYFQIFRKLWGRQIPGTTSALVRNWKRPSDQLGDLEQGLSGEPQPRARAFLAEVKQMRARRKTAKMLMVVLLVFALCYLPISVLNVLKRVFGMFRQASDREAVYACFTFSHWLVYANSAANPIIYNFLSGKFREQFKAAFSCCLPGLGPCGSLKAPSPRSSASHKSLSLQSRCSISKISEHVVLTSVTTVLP
- test-name: Intracellular calcium measurement (FLIPR), CHO cells expressing human orexin-1 receptor, 3 nM orexin-A
- Type: cell-based
- settings: CHO cells expressing human orexin-1 receptor, FLIPR, 3 nM orexin-A; geometric mean if determined several times; read-out: IC50 OX1
outcome-measure: log10 of IC50 (log10 of the value in nM)

>  <compound-structure-string>
O=C(c1cc(Cl)ccc1-n1nccn1)N1CCC[C@H]1c1nnc(-c2ccccc2OC(F)(F)F)[nH]1

>  <target-system>
orexin-1 (Homo sapiens (Human))

>  <log10 of IC50>
2.02

$$$$
>  <compound-structure-string>
Cc1c(Cl)cccc1-c1noc([C@@H]2CCCN2C(=O)c2ccc(F)cc2-n2nccn2)n1

>  <target-system>
orexin-1 (Homo sapiens (Human))

>  <log10 of IC50>
2.92

$$$$
>  <compound-structure-string>
COc1cccc(-c2nc([C@@H]3CCCN3C(=O)c3cc(Cl)ccc3-n3nccn3)no2)c1C

>  <target-system>
orexin-1 (Homo sapiens (Human))

>  <log10 of IC50>
2.10

$$$$
>  <compound-structure-string>
COc1cc(C(=O)N2CCC[C@H]2c2nc(-c3ccccc3OC(F)(F)F)no2)c(-n2nccn2)cc1C

>  <target-system>
orexin-1 (Homo sapiens (Human))

>  <log10 of IC50>
1.48

$$$$
>  <compound-structure-string>
Cc1ccc(-c2ccccc2)c(C(=O)N2CCC[C@@]2(C)c2nnc(-c3ccccc3OC(F)(F)F)[nH]2)c1

>  <target-system>
orexin-1 (Homo sapiens (Human))

>  <log10 of IC50>
1.49

$$$$
>  <compound-structure-string>
Cc1cc(-n2nccn2)c(C(=O)N2CCC[C@@]2(C)c2nnc(-c3cccc(Cl)c3C)[nH]2)cc1Cl

>  <target-system>
orexin-1 (Homo sapiens (Human))

>  <log10 of IC50>
0.95

$$$$
>  <compound-structure-string>
Cc1ccc(-n2nccn2)c(C(=O)N2CCC[C@H]2c2nnc(-c3cccc(F)c3C)[nH]2)c1

>  <target-system>
orexin-1 (Homo sapiens (Human))

>  <log10 of IC50>
2.93

$$$$
>  <compound-structure-string>
COc1cc(C(=O)N2CCC[C@H]2c2nc(-c3cccc(F)c3C)no2)c(-n2nccn2)cc1Cl

>  <target-system>
orexin-1 (Homo sapiens (Human))

>  <log10 of IC50>
1.89

$$$$
>  <compound-structure-string>
CCOc1ncccc1-c1noc([C@@H]2CCCN2C(=O)c2cccc(F)c2-c2ccn[nH]2)n1

>  <target-system>
orexin-1 (Homo sapiens (Human))

>  <log10 of IC50>
1.88

$$$$
>  <compound-structure-string>
COc1ccc(C)c(-c2nc([C@@H]3CCCN3C(=O)c3cc(OC)c(Cl)cc3-n3nccn3)no2)c1

>  <target-system>
orexin-1 (Homo sapiens (Human))

>  <log10 of IC50>
1.73

$$$$
>  <compound-structure-string>
CCOc1ncccc1-c1nc([C@@H]2CCCN2C(=O)c2cc(Cl)ccc2-n2nccn2)no1

>  <target-system>
orexin-1 (Homo sapiens (Human))

>  <log10 of IC50>
1.36

$$$$
>  <compound-structure-string>
COc1cccc(-c2nnc([C@@H]3CCCN3C(=O)c3cc(C)ccc3-n3nccn3)o2)c1

>  <target-system>
orexin-1 (Homo sapiens (Human))

>  <log10 of IC50>
3.24

$$$$
>  <compound-structure-string>
CCOc1ncccc1-c1noc([C@@H]2CCCN2C(=O)c2cc(F)cc(C)c2-n2nccn2)n1

>  <target-system>
orexin-1 (Homo sapiens (Human))

>  <log10 of IC50>
2.98

$$$$
>  <compound-structure-string>
Cc1c(F)cccc1-c1noc([C@@H]2CCCN2C(=O)c2cc(F)ccc2-n2nccn2)n1

>  <target-system>
orexin-1 (Homo sapiens (Human))

>  <log10 of IC50>
2.69

$$$$
>  <compound-structure-string>
CCc1cnc(-c2noc([C@@H]3CCCN3C(=O)c3cc(C)ccc3-n3nccn3)n2)cc1C

>  <target-system>
orexin-1 (Homo sapiens (Human))

>  <log10 of IC50>
3.17

$$$$
